Just for reference, patent US10934274B2 is where these values come from.

Tested on: Axl (Homo sapiens)
Sequence (P30530 26-894): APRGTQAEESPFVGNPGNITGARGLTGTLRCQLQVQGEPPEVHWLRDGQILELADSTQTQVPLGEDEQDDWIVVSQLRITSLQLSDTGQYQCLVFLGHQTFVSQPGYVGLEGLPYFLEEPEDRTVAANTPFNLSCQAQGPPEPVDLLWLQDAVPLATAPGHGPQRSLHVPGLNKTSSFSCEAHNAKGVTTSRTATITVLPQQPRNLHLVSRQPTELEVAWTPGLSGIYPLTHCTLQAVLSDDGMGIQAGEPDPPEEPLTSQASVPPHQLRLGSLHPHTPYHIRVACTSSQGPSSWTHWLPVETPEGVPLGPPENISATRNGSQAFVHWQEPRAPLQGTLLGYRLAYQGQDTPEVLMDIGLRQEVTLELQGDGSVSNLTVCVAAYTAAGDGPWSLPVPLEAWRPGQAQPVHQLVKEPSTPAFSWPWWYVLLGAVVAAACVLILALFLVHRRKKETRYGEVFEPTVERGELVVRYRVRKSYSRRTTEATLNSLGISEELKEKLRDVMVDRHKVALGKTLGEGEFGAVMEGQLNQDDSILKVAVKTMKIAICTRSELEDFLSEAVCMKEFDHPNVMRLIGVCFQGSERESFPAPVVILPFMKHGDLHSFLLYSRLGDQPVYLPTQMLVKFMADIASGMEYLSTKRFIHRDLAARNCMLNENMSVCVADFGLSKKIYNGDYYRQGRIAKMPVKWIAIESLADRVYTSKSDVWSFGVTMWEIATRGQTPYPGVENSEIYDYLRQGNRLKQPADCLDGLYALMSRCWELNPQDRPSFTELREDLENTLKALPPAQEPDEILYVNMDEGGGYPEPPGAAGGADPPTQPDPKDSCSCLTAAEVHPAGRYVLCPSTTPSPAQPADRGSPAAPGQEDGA
Quick list: Kd per entry.

# Compound, Endpoint, Observed measurement
data = [
    ("CCOc1cn(-c2cnccc2C#N)nc1C(=O)Nc1ccc(Oc2ccnc3cc(OC)c(OC)cc23)cn1 [Compound 147]", "Kd", "< 100 nM"),
    ("CCOc1cnn(C)c1C(=O)Nc1ccc(Oc2ccnc3cc(OC)c(OC)cc23)cn1 [Compound 30]", "Kd", "≥ 1000 nM"),
    ("CCOc1cn(-c2cnccc2C(=O)OC)nc1C(=O)Nc1ccc(Oc2ccnc3cc(OC)c(OC)cc23)cn1 [Compound 172]", "Kd", "< 100 nM"),
]

Query: Kd lookup needed for CCOc1cn(CCOC(F)F)nc1C(=O)Nc1ccc(Oc2ccnc3cc(OC)c(OC)cc23)cn1 [Compound 86] , thanks.
Response: < 100 nM

Query: Similarly, COc1cc2c(Oc3ccc(NC(=O)c4nn(-c5cnc(N)nc5)cc4OCC(F)(F)F)nc3)ccnc2cc1OC(C)C [Compound 257] ?
Response: < 100 nM

Query: Similarly, CCOc1cn(-c2ccoc2)nc1C(=O)Nc1ccc(Oc2ccnc3cc(OC)c(OC)cc23)cn1 [Compound 33] ?
Response: < 100 nM

Query: Similarly, CCOc1cn(-c2noc(C)n2)nc1C(=O)Nc1ccc(Oc2ccnc3cc(OC)c(OC)cc23)cn1 [Compound 161] ?
Response: < 100 nM

Query: Similarly, CCOc1cn(-c2nccnc2C(F)(F)F)nc1C(=O)Nc1ccc(Oc2ccnc3cc(OC)c(OC)cc23)cn1 [Compound 162] ?
Response: < 100 nM

Query: Similarly, CCOc1cnn(CC)c1C(=O)Nc1ccc(Oc2ccnc3cc(OC)c(OC)cc23)cn1 [Compound 28] ?
Response: 100 to 1000 nM
